# MEASUREMENT_NOTES: Maximum plasma concentration (Cmax) in dog at a dose of […] mg/kg
# Assay type: ADME, organism-based, Canis lupus familiaris
# MEASUREMENT_CONDITIONS: 0.7 mg/kg
Reported Cmax by item:
Report the value in nM with no unit label.

Data request, read-out Cmax, for O=C(Cn1c(Cl)cnc(NCC(F)(F)c2cccc[n+]2[O-])c1=O)NCc1c(F)cccc1C(F)(F)F
70

Continuing:
Cmax for O=C(Cn1c(Cl)cnc(NCC(F)(F)c2cccc[n+]2[O-])c1=O)NCc1ncccc1Cl ?
1090

###

Catalogue of compounds with associated Ratio
# Species on record: Homo sapiens
# MEASUREMENT_NOTES: Human microsome stabilities are reported as the ratio of the % remaining after a 1 hr incubation versus the internal standard thrombin inhibitor
# Format: functional
# Design: unit not given here
Output: the number by itself.

# annotated cases, reported Ratio shown
Which Ratio is reported for this compound? O=C(Cn1c(Cl)cnc(NCC(F)(F)c2cccc[n+]2[O-])c1=O)NCc1ccccc1C(F)(F)F
0.05

Entry under review: COc1cccc(CNC(=O)Cn2c(Cl)cnc(NCC(F)(F)c3cccc[n+]3[O-])c2=O)c1 . Reported Ratio?
0.71

Which measured Ratio value corresponds to O=C(Cn1c(Cl)cnc(NCC(F)(F)c2cccc[n+]2[O-])c1=O)NCc1cc(F)ccc1C(F)(F)F ?
0

---
Query: Ratio; subject: O=C(Cn1c(Cl)cnc(NCC(F)(F)c2cccc[n+]2[O-])c1=O)NCc1cc(Cl)ccc1Cl
1.04

Reported Ratio, compound O=C(Cn1c(Cl)cnc(NCC(F)(F)c2cccc[n+]2[O-])c1=O)NCc1cc(Cl)ccc1F : ____
0

###

# ASSAY_SYSTEM: Prothrombin (Homo sapiens)
Under this convention, criterion met denotes Ki strictly below 2 nM and criterion not met denotes Ki at or above 2 nM.

Does this compound meet the criterion Ki < 2 nM? O=C(Cn1c(Cl)cnc(NCC(F)(F)c2cccc[n+]2[O-])c1=O)NCc1ncccc1Cl
criterion not met

Is the reported Ki for O=C(Cn1c(Cl)cnc(NCC(F)(F)c2cccc[n+]2[O-])c1=O)NCc1cc(Cl)ccc1Cl strictly below 2 nM?
criterion met

Consider the compound O=C(Cn1c(Cl)cnc(NCC(F)(F)c2cccc[n+]2[O-])c1=O)NCc1cccc(OC(F)F)c1 . Is its Ki strictly less than 2 nM?
criterion not met

# TODO verify Ki < 2 nM strictly for this compound: O=C(Cn1c(Cl)cnc(NCC(F)(F)c2cccc[n+]2[O-])c1=O)NCc1ccccc1OCC(F)(F)F
criterion met

is_below(Ki, 2 nM) for O=C(Cn1c(Cl)cnc(NCC(F)(F)c2cccc[n+]2[O-])c1=O)NCc1cccc(Cl)c1 ?
criterion met

Others:
I wonder whether O=C(Cn1c(Cl)cnc(NCC(F)(F)c2cccc[n+]2[O-])c1=O)NCc1c(F)ccc(F)c1F has Ki below 2 nM. Can you tell?
criterion met

Answer whether the compound Cc1cccc(CNC(=O)Cn2c(Cl)cnc(NCC(F)(F)c3cccc[n+]3[O-])c2=O)c1 has Ki strictly less than 2 nM
criterion met

Here's an entry: O=C(Cn1c(Cl)cnc(NCC(F)(F)c2cccc[n+]2[O-])c1=O)NCc1c(F)cccc1F . Is its Ki below 2 nM?
criterion met

Take the compound O=C(Cn1c(Cl)cnc(NCC(F)(F)c2cccc[n+]2[O-])c1=O)NCc1cc(F)ccc1F and say whether its Ki is less than 2 nM.
criterion not met

Given the entry O=C(Cn1c(Cl)cnc(NCC(F)(F)c2ccccn2)c1=O)NCc1ccccc1F , would its reported Ki be below 2 nM?
criterion not met

Value source: ChEMBL document CHEMBL1136692
